# tested_on: recombinant human farnesyl transferase (Homo sapiens, UniProt P49354+P49356)
# protocol_notes: In vitro inhibition of ras farnesyl transferase
# study_conditions: read-out: ID50, Inhibition of RAS farnesylation (concentration which gives 50% inhibition of FTase)
pIC50: −log10 of the molar value.
assay_readout: pIC50

>>> obs_value("CCCC[C@H](/C=C/[C@@H](NC[C@@H](N)CS)[C@@H](C)CC)C(=O)N[C@@H](CCSC)C(=O)O")
8.60

[a] CC[C@H](C)[C@@H](/C=C/[C@H](C(=O)N[C@@H](CCO)C(=O)O)C(C)C)NC[C@@H](N)CS
[b] CC[C@H](C)[C@@H](/C=C/[C@@H](Cc1ccccc1)C(=O)N[C@@H](CCSC)C(=O)O)NC[C@@H](N)CS
Of a and b , which carries the smaller reported pIC50 figure? Pick one; state its label.
a
